Entries and their measured viability at 48 h, 10 µM follow.
- method_notes: Cytotoxicity against mouse 3T3-L1 cells assessed as cell viability at 10 uM incubated for 48 hrs by CCK-8 assay relative to control
- Type: toxicity, cell-based
- protocol_conditions: read-out: Activity

| compound | viability at 48 h, 10 µM |
| --- | --- |
| COc1ccc(C[C@@H]2c3cc(Oc4cc(C[C@H]5c6cc(OC)c(OC)cc6CCN5C)ccc4O)c(OC)cc3CCN2C)cc1 | < 80% |
| COc1cc2c(cc1O)[C@@H](Cc1ccc(O)c(Oc3cc4c(cc3OC)CCN(C)[C@@H]4Cc3ccc(O)cc3)c1)N(C)CC2 | > 80% |
| C=C(c1ccc(O)c(Oc2cc3c(cc2OC)CCN(C)[C@@H]3Cc2ccc(OC)cc2)c1)[C@H]1c2cc(O)c(OC)cc2CCN1C | < 80% |
| COc1ccc(C[C@@H]2c3cc(Oc4cc(C[C@@H]5c6cc(O)c(OC)cc6CCN5C)ccc4O)c(OC)cc3CCN2C)cc1 | > 80% |

Below: the item to evaluate.
Give its viability at 48 h, 10 µM value. Item: C=C(c1ccc(O)c(Oc2cc3c(cc2OC)CCN(C)[C@@H]3Cc2ccc(OC)cc2)c1)[C@@H]1c2cc(OC)c(OC)cc2CCN1C
> 80%

All figures here come from ChEMBL document CHEMBL5385940.
